System: Cryptococcus neoformans ATCC 24067
metric-name: MIC (µg/mL)

molecule	assay-target	assay-value
C[C@@H](N1CCCC(c2ccccn2)C1)[C@](O)(Cn1cncn1)c1ccc(F)cc1F (stereo partly drawn) [I-12]	Cryptococcus neoformans ATCC 24067	10
C[C@@H](c1ncncc1F)[C@](O)(Cn1cncn1)c1ccc(F)cc1F [C-1, Voriconazol, reference compound]	Cryptococcus neoformans ATCC 24067	0.1
C[C@@H](Oc1cc(-c2ccccn2)ccn1)[C@](O)(Cn1cncn1)c1ccc(F)cc1F [I-9]	Cryptococcus neoformans ATCC 24067	0.3
Cc1ccc(C2=CCCN([C@H](C)[C@](O)(Cn3cncn3)c3ccc(F)cc3F)C2)nc1C [I-11]	Cryptococcus neoformans ATCC 24067	0.3
C[C@@H](N1CCC(c2ccccn2)CC1)[C@](O)(Cn1cncn1)c1ccc(F)cc1F [I-1]	Cryptococcus neoformans ATCC 24067	0.1
C[C@@H](N1CC=C(c2ccccn2)CC1)[C@](O)(Cn1cncn1)c1ccc(F)cc1F [I-3]	Cryptococcus neoformans ATCC 24067	0.3
C[C@@H](n1ccc(-c2ccccn2)cc1=O)[C@](O)(Cn1cncn1)c1ccc(F)cc1F [I-8]	Cryptococcus neoformans ATCC 24067	0.3
C[C@@H](N1CC=C(c2ccc(Cl)cn2)CC1)[C@](O)(Cn1cncn1)c1ccc(F)cc1F [I-6]	Cryptococcus neoformans ATCC 24067	0.03
C[C@@H](N1CC=C(c2ccc(F)cn2)CC1)[C@](O)(Cn1cncn1)c1ccc(F)cc1F [I-7]	Cryptococcus neoformans ATCC 24067	0.3

----------
System: Cryptococcus neoformans ATCC 24067
metric-name: MIC (µg/mL)

compound	metric-name	assay-value
Cc1ccc(C2=CCN([C@H](C)[C@](O)(Cn3cncn3)c3ccc(F)cc3F)CC2)nc1 [I-5]	MIC	0.03
C[C@@H](N1CCC=C(c2ccccn2)C1)[C@](O)(Cn1cncn1)c1ccc(F)cc1F [I-10]	MIC	1
Cc1ccc(C2=CCN([C@H](C)[C@](O)(Cn3cncn3)c3ccc(F)cc3F)CC2)nc1C [I-4]	MIC	0.1
C[C@@H](N1CCC(c2ccc(F)cn2)CC1)[C@](O)(Cn1cncn1)c1ccc(F)cc1F [I-2]	MIC	0.3

----------
Test system: Microsporum canis ATCC 36299
assay-procedure: Antifungal activity test (in vitro), MIC
Type: cell-based
setup-conditions: ATCC36299
metric-name: log10(MIC) (log10 of the value in µg/mL)

compound	assay-value
C[C@@H](N1CCC=C(c2ccccn2)C1)[C@](O)(Cn1cncn1)c1ccc(F)cc1F	2.00
C[C@@H](N1CC=C(c2ccc(F)cn2)CC1)[C@](O)(Cn1cncn1)c1ccc(F)cc1F	1.00
Cc1ccc(C2=CCN([C@H](C)[C@](O)(Cn3cncn3)c3ccc(F)cc3F)CC2)nc1C	0.00
C[C@@H](N1CCC(c2ccc(F)cn2)CC1)[C@](O)(Cn1cncn1)c1ccc(F)cc1F	1.00
C[C@@H](n1ccc(-c2ccccn2)cc1=O)[C@](O)(Cn1cncn1)c1ccc(F)cc1F	1.00
C[C@@H](c1ncncc1F)[C@](O)(Cn1cncn1)c1ccc(F)cc1F [C-1, Voriconazol, reference compound]	0.48
C[C@@H](N1CC=C(c2ccc(Cl)cn2)CC1)[C@](O)(Cn1cncn1)c1ccc(F)cc1F	-0.52
Cc1ccc(C2=CCN([C@H](C)[C@](O)(Cn3cncn3)c3ccc(F)cc3F)CC2)nc1	0.00

----------
Tested on: Candida albicans TIMM 1623
assay-procedure: Antifungal activity test (in vivo), mouse systemic infection model
setup-conditions: 1 mg/kg s.c.; day 2

compound	assay-target	survival rate
C[C@@H](N1CC=C(c2ccc(Cl)cn2)CC1)[C@](O)(Cn1cncn1)c1ccc(F)cc1F	Candida albicans TIMM 1623	100
OC(Cn1cncn1)(Cn1cncn1)c1ccc(F)cc1F [FLCZ, Fluconazole, reference compound]	Candida albicans TIMM 1623	100
C[C@@H](N1CC=C(c2ccccn2)CC1)[C@](O)(Cn1cncn1)c1ccc(F)cc1F	Candida albicans TIMM 1623	100
C[C@@H](N1CCC(c2ccccn2)CC1)[C@](O)(Cn1cncn1)c1ccc(F)cc1F	Candida albicans TIMM 1623	100

----------
Tested on: Pityrosporum ovale ATCC 38593
Quick reference: log10 of MIC of the listed items.
metric-name: log10 of MIC (log10 of the value in µg/mL)

compound	assay-target	log10 of MIC
C[C@@H](N1CCC(c2ccc(F)cn2)CC1)[C@](O)(Cn1cncn1)c1ccc(F)cc1F	Pityrosporum ovale ATCC 38593	-2.00
C[C@@H](N1CCC=C(c2ccccn2)C1)[C@](O)(Cn1cncn1)c1ccc(F)cc1F	Pityrosporum ovale ATCC 38593	-0.52
C[C@@H](N1CC=C(c2ccc(F)cn2)CC1)[C@](O)(Cn1cncn1)c1ccc(F)cc1F	Pityrosporum ovale ATCC 38593	-2.00
C[C@@H](N1CCC(c2ccccn2)CC1)[C@](O)(Cn1cncn1)c1ccc(F)cc1F	Pityrosporum ovale ATCC 38593	-0.52
C[C@@H](N1CC=C(c2ccc(Cl)cn2)CC1)[C@](O)(Cn1cncn1)c1ccc(F)cc1F	Pityrosporum ovale ATCC 38593	-2.52
C[C@@H](n1ccc(-c2ccccn2)cc1=O)[C@](O)(Cn1cncn1)c1ccc(F)cc1F	Pityrosporum ovale ATCC 38593	0.00
C[C@@H](N1CCCC(c2ccccn2)C1)[C@](O)(Cn1cncn1)c1ccc(F)cc1F (stereo partly shown)	Pityrosporum ovale ATCC 38593	1.00
Cc1ccc(C2=CCCN([C@H](C)[C@](O)(Cn3cncn3)c3ccc(F)cc3F)C2)nc1C	Pityrosporum ovale ATCC 38593	-1.00
C[C@@H](N1CC=C(c2ccccn2)CC1)[C@](O)(Cn1cncn1)c1ccc(F)cc1F	Pityrosporum ovale ATCC 38593	-2.52
C[C@@H](c1ncncc1F)[C@](O)(Cn1cncn1)c1ccc(F)cc1F [C-1, Voriconazol, reference compound]	Pityrosporum ovale ATCC 38593	-0.52
Cc1ccc(C2=CCN([C@H](C)[C@](O)(Cn3cncn3)c3ccc(F)cc3F)CC2)nc1	Pityrosporum ovale ATCC 38593	-2.52
C[C@@H](Oc1cc(-c2ccccn2)ccn1)[C@](O)(Cn1cncn1)c1ccc(F)cc1F	Pityrosporum ovale ATCC 38593	-0.52
Cc1ccc(C2=CCN([C@H](C)[C@](O)(Cn3cncn3)c3ccc(F)cc3F)CC2)nc1C	Pityrosporum ovale ATCC 38593	1.00

----------
System: Candida albicans ATCC 10231
# note: boundary value 0.3 µg/mL maps to f; MIC below it maps to t

compound	class-label
Cc1ccc(C2=CCCN([C@H](C)[C@](O)(Cn3cncn3)c3ccc(F)cc3F)C2)nc1C [I-11]	f
C[C@@H](N1CCC=C(c2ccccn2)C1)[C@](O)(Cn1cncn1)c1ccc(F)cc1F [I-10]	f
Cc1ccc(C2=CCN([C@H](C)[C@](O)(Cn3cncn3)c3ccc(F)cc3F)CC2)nc1 [I-5]	t
C[C@@H](N1CC=C(c2ccc(Cl)cn2)CC1)[C@](O)(Cn1cncn1)c1ccc(F)cc1F [I-6]	t

----------
Quick reference: T/C (%) of the listed items.
Tested on: Candida albicans TIMM 1623
assay-procedure: Antifungal activity test (in vivo), mouse systemic infection model
setup-conditions: 1 mg/kg s.c.; survival time of administration group / control group x100
metric-name: T/C (%)

compound	measurement-unit	assay-value
C[C@@H](N1CC=C(c2ccc(Cl)cn2)CC1)[C@](O)(Cn1cncn1)c1ccc(F)cc1F	%	242
C[C@@H](N1CC=C(c2ccccn2)CC1)[C@](O)(Cn1cncn1)c1ccc(F)cc1F	%	142
OC(Cn1cncn1)(Cn1cncn1)c1ccc(F)cc1F [FLCZ, Fluconazole, reference compound]	%	235
C[C@@H](N1CCC(c2ccccn2)CC1)[C@](O)(Cn1cncn1)c1ccc(F)cc1F	%	161

----------
Tested on: Candida albicans TIMM 1623
assay-procedure: Antifungal activity test (in vivo), mouse systemic infection model
setup-conditions: 0.1 mg/kg s.c.; survival time of administration group / control group x100
Quick reference: T/C (%) of the listed items.

molecule	T/C (%)
OC(Cn1cncn1)(Cn1cncn1)c1ccc(F)cc1F [FLCZ, Fluconazole, reference compound]	119
C[C@@H](N1CC=C(c2ccccn2)CC1)[C@](O)(Cn1cncn1)c1ccc(F)cc1F	139
C[C@@H](N1CC=C(c2ccc(Cl)cn2)CC1)[C@](O)(Cn1cncn1)c1ccc(F)cc1F	194
C[C@@H](N1CCC(c2ccccn2)CC1)[C@](O)(Cn1cncn1)c1ccc(F)cc1F	103

----------
Quick reference: melting point of the listed items.

compound	melting point
C[C@@H](N1CCC(c2ccc(F)cn2)CC1)[C@](O)(Cn1cncn1)c1ccc(F)cc1F [I-2]	100 to 102 °C
C[C@@H](N1CCC=C(c2ccccn2)C1)[C@](O)(Cn1cncn1)c1ccc(F)cc1F [I-10]	89 to 92 °C
Cc1ccc(C2=CCN([C@H](C)[C@](O)(Cn3cncn3)c3ccc(F)cc3F)CC2)nc1C [I-4]	85.5 to 87.5 °C
C[C@@H](N1CC=C(c2ccc(F)cn2)CC1)[C@](O)(Cn1cncn1)c1ccc(F)cc1F [I-7]	148 to 150 °C
Cc1ccc(C2=CCN([C@H](C)[C@](O)(Cn3cncn3)c3ccc(F)cc3F)CC2)nc1 [I-5]	115 to 117 °C
C[C@@H](Oc1cc(-c2ccccn2)ccn1)[C@](O)(Cn1cncn1)c1ccc(F)cc1F [I-9]	178 to 180 °C
C[C@@H](N1CCCC(c2ccccn2)C1)[C@](O)(Cn1cncn1)c1ccc(F)cc1F (stereo partly shown) [I-12]	75 to 78 °C
